Reference for the values: the supplement of paper PMC4466140

Consider the following binders; for each one, report its SPOT peptide array binding signal intensity.
- Assayed System: AgBem1-D1
- Protocol Text: SPOT peptide array binding signal intensity (averaged, normalized) (arbitrary units (background-subtracted, floor 0; scale differs between SH3 domains)); higher = stronger binding of the SH3 domain to the peptide
Numbers only.

// worked examples, SPOT peptide array binding signal intensity included
Binder	Result
LKPPIGRPPKFPKSP	27
NLPKRKPPKLQGPFS	244
HGKRRAPLLLAKLDV	26
PPPPPPPPPPPLPQS	28

Look up SPOT peptide array binding signal intensity: HRRRRVFSIPSLKSI
426
